Value source: paper PMC6661505

- experimentalSystem: mouse FGFR3b-Fc (mouse, UniProt Q61851-2 21-371)
- runDescription: bead flow cytometry
pKd: −log10 of the molar value.
metric: pKd

# pKd lookup, item GCCGAUGGUUUUGUGGCCGUUUGAGGUUCCUACGGC (structured_RNA, 2'-fluoro C and U; 3' inverted dT (not in string)) [iR3]
~7.21
